- systemTested: T1, recombinant human activated Factor VII (FVIIa) (human, UniProt P08709 61-212; P08709 213-466, ten glutamate residues of the Gla domain may be gamma-carboxylated)
- T1 construct: chains tethered by a disulfide bond; also called Factor VIIa; rFVIIa
- T1 sequence 1: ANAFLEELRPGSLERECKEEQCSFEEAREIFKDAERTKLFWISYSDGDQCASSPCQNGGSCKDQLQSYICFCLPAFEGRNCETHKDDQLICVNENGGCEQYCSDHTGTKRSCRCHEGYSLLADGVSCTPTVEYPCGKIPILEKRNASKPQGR
- T1 sequence 2: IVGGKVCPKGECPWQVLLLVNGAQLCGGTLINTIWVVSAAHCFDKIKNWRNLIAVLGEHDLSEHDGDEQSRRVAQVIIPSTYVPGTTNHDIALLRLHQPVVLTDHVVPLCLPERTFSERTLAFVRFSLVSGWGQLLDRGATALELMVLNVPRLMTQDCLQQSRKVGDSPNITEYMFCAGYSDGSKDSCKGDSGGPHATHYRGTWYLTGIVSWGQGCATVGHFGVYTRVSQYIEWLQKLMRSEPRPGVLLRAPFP
- testSummary: BLI (Fortebio)
measurementName: pKd
Please keep in mind that pKd is minus log10 of the molar concentration; only the number is needed.

// recorded pKd for VH SEQ ID NO 538 / VL SEQ ID NO 334 (antibody, IgG4, V domains shown, humanized 11F2; IgG4 S228P/kappa) VH: QVQLQESGPGLVEPSQTLSLTCTVSGYSITSDSAWSWIRQPPGKKLEWIGYIQYSGSTNYNPSLKSRVTISRDTSKNQFSLKLSSVTAADTAVYYCARSVNYYGNSFAVGYWGQGTLVTVSS VL: EIVLTQSPATLSLSPGERATLSCRASQGISDYLHWYQQKPGQAPRLLIKYASQPATGIPARFSGSGSGTDFTLTISSLEPEDFAVYYCQNGHSFPLTFGQGTKLEIK : 9.01

// recorded pKd for VH SEQ ID NO 610 / VL SEQ ID NO 366 (antibody, IgG4, V domains shown, humanized 11F2; IgG4 S228P/kappa) VH: QVQLQESGPGLVKPSQTLSLTCTVSGGSITSDSAWSWIRQPPGKGLEWIGYIQYSGSTNYNPSLKSRVTISVDTSKNQFSLKLSSVTAADTAVYYCARSVNYYGNSFAVGYWGQGTLVTVSS VL: EIVLTQSPATLSLSPGERATLSCRASQGLSDYLAWYQQKPGEAPRLLIKYASQPATGIPARFSGSGSGTDFTLTISSLEPEDFAVYYCQNGHSFPLTFGQGTKLEIK : 6.48

// recorded pKd for VH SEQ ID NO 562 / VL SEQ ID NO 326 (antibody, IgG4, V domains shown, humanized 11F2; IgG4 S228P/kappa) VH: QVQLQESGPGLVKPSDTLSLTCAVSGYSISSDSAWSWIRQPPGKGLEWIGYIQYSGSTNYNPSLKSRVTMSRDTSKNQFSLKLSSVTALDTAVYYCARSVNYYGNSFAVGPWGQGTLVTVSS VL: EIVLTQSPATLSLSPGERATLSCRASQGISDYLHWYQQKPGEAPRLLIKYTSQPATGIPARFSGSGSGTDFTLTISSLEPEDFGVYYCQNGHSFPLTFGAGTKLELK : 9.11
